# Measured On: FMC63-scFv-mFc protein
# Sequence (chain, as listed by the source): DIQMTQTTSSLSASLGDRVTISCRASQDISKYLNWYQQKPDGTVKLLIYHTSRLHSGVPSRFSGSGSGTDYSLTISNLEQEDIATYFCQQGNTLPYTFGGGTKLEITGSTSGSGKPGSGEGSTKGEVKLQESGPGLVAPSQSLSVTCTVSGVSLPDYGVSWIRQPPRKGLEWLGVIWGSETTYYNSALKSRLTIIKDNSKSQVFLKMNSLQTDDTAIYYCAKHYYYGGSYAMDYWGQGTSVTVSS
# Test Summary: ELISA, plate coated with FMC63-scFv-mFc, biotin-labelled FMC63-scFv-mFc for detection

Binder	EC50 (µg/mL)
mAb07 (27C5E11) (antibody, V domains shown) VH: QVQLQQPGAELVKPGASVKLSCKASGYTFTSYWMHWVKQRPGQGLEWIGMIHPNGDSTNYNEKFKTKATLTVDKSSSTAYMQLSSLTSEDSAVYYCARTDGYYAPYFAMDYWGQGTSVTVSS VL: DIQMTQSTSSLSASLGDRVTISCRASQDINNYLNWYQQKPDGTVKLLIYYTSRLHLGVPSRFSGSGSGTDYSLTISNLEQEDIATYFCQQGNTLPFTVGSGTKLEIK	0.099
